- tested.on: P-selectin (PS-Rg) (Homo sapiens, UniProt P16109 P16109:42-321)
- Sequence (P16109 42-321, one chain of several): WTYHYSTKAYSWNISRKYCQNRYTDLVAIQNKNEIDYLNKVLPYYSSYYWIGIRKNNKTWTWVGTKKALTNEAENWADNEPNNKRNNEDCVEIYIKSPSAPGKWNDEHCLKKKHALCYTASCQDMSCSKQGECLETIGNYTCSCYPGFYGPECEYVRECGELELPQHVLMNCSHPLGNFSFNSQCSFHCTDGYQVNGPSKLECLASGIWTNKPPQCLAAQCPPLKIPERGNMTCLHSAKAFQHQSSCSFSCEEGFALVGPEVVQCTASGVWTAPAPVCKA
- assay.text: filter
- condition.details: tags: human IgG Fc fusion; chain copies: 2 (stated dimer)
measured.metric: Kd (nM)
One number for each entry, in nM.

Quick one: Kd of CUCAACGAGUUCACAUGGGAGCAAUCUCCGAAUAAACAACACGCGAG (ssRNA, 2'-F C and U) [PF424s1] ?
0.178
